Target: T1, human MSLN-R2-his protein (human, UniProt Q13421 391-486)
T1 construct: Region 2 of human mesothelin, made in HEK293E cells, His-tagged; also called human MSLN-R2 protein; hMSLN-R2-his; not shown: His tag
T1 sequence (Q13421 other isoform, or with tags, fused parts or gaps): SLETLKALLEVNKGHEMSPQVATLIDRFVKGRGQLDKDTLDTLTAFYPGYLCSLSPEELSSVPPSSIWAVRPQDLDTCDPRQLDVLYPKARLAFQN
Experiment: ELISA on coated MSLN-R2; antibody 10 nM
// values below are reported OD450
Reply numerically in OD450, unit not repeated.

S009-F8-19.21 (antibody, human IgG1, kappa, V domains shown) VH: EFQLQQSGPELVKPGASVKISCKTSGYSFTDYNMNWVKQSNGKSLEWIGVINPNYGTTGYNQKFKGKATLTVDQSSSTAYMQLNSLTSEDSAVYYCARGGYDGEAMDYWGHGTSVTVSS VL: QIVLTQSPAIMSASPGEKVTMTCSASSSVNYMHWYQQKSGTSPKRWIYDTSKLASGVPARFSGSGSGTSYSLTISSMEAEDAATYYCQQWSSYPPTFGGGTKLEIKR: 0.06

Qu. Any idea what its OD450 is? The binder is S009-F8-15.19 (antibody, human IgG1, kappa, V domains shown) VH: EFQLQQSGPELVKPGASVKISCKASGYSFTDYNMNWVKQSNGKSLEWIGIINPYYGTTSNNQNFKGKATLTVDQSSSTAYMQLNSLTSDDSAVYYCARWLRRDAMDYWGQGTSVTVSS VL: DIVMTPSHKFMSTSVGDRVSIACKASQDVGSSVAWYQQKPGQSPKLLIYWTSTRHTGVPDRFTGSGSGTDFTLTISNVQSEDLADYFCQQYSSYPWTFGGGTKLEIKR
Ans. 0.05

This collection of values is drawn from patent US20250250357A1.
